- TARGET_OR_TEST_SYSTEM: panel of 203 kinases (Homo sapiens)
- Construct: purchased DiscoverX (KINOMEscan)
- ASSAY_PROTOCOL: KINOMEscan competitive binding, whole panel
- CONDITION_CONTEXT: 10 µM, n=1; kinase p38-beta; read-out: Percent inhibition p38-beta
Measured inhibition at 10 µM, listed per entry.
Unit % implied. Number only.

* Clc1ccc(Nc2ncc(-c3ccccc3)s2)cc1 | 0

[Q] For panel of 203 kinases (Homo sapiens), provide inhibition at 10 µM of "Cc1ccc(O)cc1N(C)c1ccnc(Nc2cccc(S(N)(=O)=O)c2)n1" please.
[A] 100

[Q] Field: inhibition at 10 µM (panel of 203 kinases (Homo sapiens)). Entry: "Nc1ncc2c(-c3ccncc3)c[nH]c2n1"
[A] 0

[Q] # returns recorded inhibition at 10 µM (system: panel of 203 kinases (Homo sapiens)) for "COc1ccc(Nc2nccc(-c3cnn4ncccc34)n2)cc1"
[A] 0

[Q] Form: Entry = "C[C@@H](Oc1cc(-c2cnc3ccccn23)sc1C(N)=O)c1ccccc1Cl" | System = panel of 203 kinases (Homo sapiens) | inhibition at 10 µM = ____
[A] 0

[Q] Request - read-out inhibition at 10 µM | tested on panel of 203 kinases (Homo sapiens) | compound "Fc1cccc(COc2ccc(Nc3ncnc4c3CN(CCN3CCOCC3)CC4)cc2Cl)c1"
[A] 0

[Q] Give the reported inhibition at 10 µM for "Cc1ccc(O)cc1Nc1ccnc(Nc2cccc(C(N)=O)c2)n1" (system: panel of 203 kinases (Homo sapiens)).
[A] 94.8

[Q] Which measured inhibition at 10 µM belongs to "COc1cc(Nc2nccc(-c3sc(N)nc3-c3cccc(NC(=O)c4c(F)cccc4F)c3)n2)cc(OC)c1OC" , tested on panel of 203 kinases (Homo sapiens)?
[A] 100

[Q] So what inhibition at 10 µM did "c1ccc(COc2cccc(-c3ccnc4[nH]ccc34)c2)cc1" get with panel of 203 kinases (Homo sapiens)?
[A] 0

[Q] Give recorded inhibition at 10 µM with panel of 203 kinases (Homo sapiens) for the following compound: "CN1CCN(c2ccc(Nc3nccc(-c4cnn5ncccc45)n3)cc2C#N)CC1"
[A] 0

----------
- TARGET_OR_TEST_SYSTEM: PRKCH (Homo sapiens, UniProt P24723)
- Construct: purchased DiscoverX (KINOMEscan)
- Sequence (P24723 whole entry): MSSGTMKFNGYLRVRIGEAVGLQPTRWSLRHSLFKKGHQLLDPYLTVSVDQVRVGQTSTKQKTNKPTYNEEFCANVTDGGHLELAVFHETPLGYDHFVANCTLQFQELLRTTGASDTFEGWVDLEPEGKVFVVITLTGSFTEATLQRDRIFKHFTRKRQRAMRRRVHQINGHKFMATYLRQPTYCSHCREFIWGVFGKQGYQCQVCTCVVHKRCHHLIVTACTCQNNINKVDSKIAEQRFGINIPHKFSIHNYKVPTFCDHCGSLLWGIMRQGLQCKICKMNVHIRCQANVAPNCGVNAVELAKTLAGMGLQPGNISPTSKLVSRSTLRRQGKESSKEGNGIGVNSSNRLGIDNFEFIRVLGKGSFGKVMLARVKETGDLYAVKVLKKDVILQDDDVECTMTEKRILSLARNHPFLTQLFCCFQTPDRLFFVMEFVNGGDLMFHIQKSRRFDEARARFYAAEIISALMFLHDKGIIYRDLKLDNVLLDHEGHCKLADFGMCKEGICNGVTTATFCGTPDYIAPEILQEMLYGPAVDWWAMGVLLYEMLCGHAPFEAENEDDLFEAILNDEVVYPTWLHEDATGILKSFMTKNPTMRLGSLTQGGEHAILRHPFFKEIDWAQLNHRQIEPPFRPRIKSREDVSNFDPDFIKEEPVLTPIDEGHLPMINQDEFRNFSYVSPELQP
- ASSAY_PROTOCOL: KINOMEscan competitive binding
- CONDITION_CONTEXT: n=1, read-out: Percent inhibition, PRKCH
The following molecules are listed with their measured inhibition at 10 µM values.
Number only, in %; omit the unit.

- COc1cc(Nc2nccc(-c3sc(N)nc3-c3cccc(NC(=O)c4c(F)cccc4F)c3)n2)cc(OC)c1OC [Compound 7]: 87.7
- Fc1cccc(COc2ccc(Nc3ncnc4c3CN(CCN3CCOCC3)CC4)cc2Cl)c1 [Compound 6]: 0
- COc1ccc(Nc2nccc(-c3cnn4ncccc34)n2)cc1 [Compound 2]: 0
- c1ccc(COc2cccc(-c3ccnc4[nH]ccc34)c2)cc1 [Compound 9]: 87.9
- Cc1ccc(O)cc1Nc1ccnc(Nc2cccc(C(N)=O)c2)n1 [Compound 3]: 0
- CN1CCN(c2ccc(Nc3nccc(-c4cnn5ncccc45)n3)cc2C#N)CC1 [Compound 1]: 83.4
- Nc1ncc2c(-c3ccncc3)c[nH]c2n1 [Compound 11]: 0
- C[C@@H](Oc1cc(-c2cnc3ccccn23)sc1C(N)=O)c1ccccc1Cl [Compound 8]: 0
- Clc1ccc(Nc2ncc(-c3ccccc3)s2)cc1 [Compound 10]: 0

[Q] # returns recorded inhibition at 10 µM (system: PRKCH (Homo sapiens, UniProt P24723)) for Cc1ccc(O)cc1N(C)c1ccnc(Nc2cccc(S(N)(=O)=O)c2)n1 [Compound 4]
[A] 0

----------
This listing pairs compounds with measured inhibition at 10 µM.
- TARGET_OR_TEST_SYSTEM: KIT (Homo sapiens)
- Construct: purchased DiscoverX (KINOMEscan)
- Sequence (P10721 26-976): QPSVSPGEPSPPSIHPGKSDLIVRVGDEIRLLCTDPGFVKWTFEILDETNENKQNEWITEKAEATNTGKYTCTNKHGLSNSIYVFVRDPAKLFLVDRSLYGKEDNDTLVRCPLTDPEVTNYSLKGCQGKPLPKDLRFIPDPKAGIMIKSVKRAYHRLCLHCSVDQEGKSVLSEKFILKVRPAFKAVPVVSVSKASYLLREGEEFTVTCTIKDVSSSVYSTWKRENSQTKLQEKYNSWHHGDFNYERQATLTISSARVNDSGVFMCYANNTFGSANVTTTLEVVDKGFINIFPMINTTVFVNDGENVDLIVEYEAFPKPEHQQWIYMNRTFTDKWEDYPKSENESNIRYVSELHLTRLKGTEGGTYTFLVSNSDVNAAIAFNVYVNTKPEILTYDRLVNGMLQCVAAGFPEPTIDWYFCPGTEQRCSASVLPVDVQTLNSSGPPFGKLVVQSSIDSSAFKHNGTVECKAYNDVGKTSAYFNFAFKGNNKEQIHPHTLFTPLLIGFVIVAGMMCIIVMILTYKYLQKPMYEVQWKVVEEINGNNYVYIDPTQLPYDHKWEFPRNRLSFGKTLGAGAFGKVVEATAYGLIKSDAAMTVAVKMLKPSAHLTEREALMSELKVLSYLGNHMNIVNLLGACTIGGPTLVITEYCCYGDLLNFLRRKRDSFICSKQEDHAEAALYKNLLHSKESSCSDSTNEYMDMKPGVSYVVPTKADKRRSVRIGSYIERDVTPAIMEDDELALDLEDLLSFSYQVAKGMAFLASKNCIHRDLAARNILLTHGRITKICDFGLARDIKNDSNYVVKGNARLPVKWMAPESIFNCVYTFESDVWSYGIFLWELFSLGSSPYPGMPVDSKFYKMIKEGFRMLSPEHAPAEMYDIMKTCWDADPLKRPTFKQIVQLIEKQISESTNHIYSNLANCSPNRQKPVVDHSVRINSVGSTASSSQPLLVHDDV
- ASSAY_PROTOCOL: KINOMEscan competitive binding
- CONDITION_CONTEXT: 10 µM, n=1; kinase KIT; read-out: Percent inhibition KIT
Reply with just the number (in %).

Before answering, review these 5 worked examples.
- CN1CCN(c2ccc(Nc3nccc(-c4cnn5ncccc45)n3)cc2C#N)CC1: 100
- C[C@@H](Oc1cc(-c2cnc3ccccn23)sc1C(N)=O)c1ccccc1Cl: 0
- Nc1ncc2c(-c3ccncc3)c[nH]c2n1: 99.3
- c1ccc(COc2cccc(-c3ccnc4[nH]ccc34)c2)cc1: 0
- Clc1ccc(Nc2ncc(-c3ccccc3)s2)cc1: 99

[Q] // lookup inhibition at 10 µM | system=KIT (Homo sapiens) | key= "Cc1ccc(O)cc1Nc1ccnc(Nc2cccc(C(N)=O)c2)n1"
[A] 100

[Q] Form: Entry = "Cc1ccc(O)cc1N(C)c1ccnc(Nc2cccc(S(N)(=O)=O)c2)n1" | System = KIT (Homo sapiens) | inhibition at 10 µM = ____
[A] 100

[Q] Entry "COc1ccc(Nc2nccc(-c3cnn4ncccc34)n2)cc1" , system KIT (Homo sapiens): what inhibition at 10 µM was measured?
[A] 100

[Q] KIT (Homo sapiens) / inhibition at 10 µM / "Fc1cccc(COc2ccc(Nc3ncnc4c3CN(CCN3CCOCC3)CC4)cc2Cl)c1" : value?
[A] 0

[Q] inhibition at 10 µM of "COc1cc(Nc2nccc(-c3sc(N)nc3-c3cccc(NC(=O)c4c(F)cccc4F)c3)n2)cc(OC)c1OC" on KIT (Homo sapiens)?
[A] 100

----------
- TARGET_OR_TEST_SYSTEM: panel of 203 kinases (Homo sapiens)
- Construct: purchased DiscoverX (KINOMEscan)
- ASSAY_PROTOCOL: KINOMEscan competitive binding, whole panel
- CONDITION_CONTEXT: 10 µM, n=1; kinase MARK1; read-out: Percent inhibition MARK1
Reported inhibition at 10 µM values follow for various molecules
Please respond with the number in % and leave the unit unwritten.

# count of solved cases: 8
* COc1cc(Nc2nccc(-c3sc(N)nc3-c3cccc(NC(=O)c4c(F)cccc4F)c3)n2)cc(OC)c1OC [Compound 7] | 79
* Nc1ncc2c(-c3ccncc3)c[nH]c2n1 [Compound 11] | 0
* Fc1cccc(COc2ccc(Nc3ncnc4c3CN(CCN3CCOCC3)CC4)cc2Cl)c1 [Compound 6] | 0
* c1ccc(COc2cccc(-c3ccnc4[nH]ccc34)c2)cc1 [Compound 9] | 0
* Cc1ccc(O)cc1N(C)c1ccnc(Nc2cccc(S(N)(=O)=O)c2)n1 [Compound 4] | 0
* COc1ccc(Nc2nccc(-c3cnn4ncccc34)n2)cc1 [Compound 2] | 0
* CN1CCN(c2ccc(Nc3nccc(-c4cnn5ncccc45)n3)cc2C#N)CC1 [Compound 1] | 85.3
* Clc1ccc(Nc2ncc(-c3ccccc3)s2)cc1 [Compound 10] | 0

[Q] Data request, read-out inhibition at 10 µM, for Cc1ccc(O)cc1Nc1ccnc(Nc2cccc(C(N)=O)c2)n1 [Compound 3]
[A] 0

[Q] What value of measured inhibition at 10 µM is listed for C[C@@H](Oc1cc(-c2cnc3ccccn23)sc1C(N)=O)c1ccccc1Cl [Compound 8] ?
[A] 0

----------
- TARGET_OR_TEST_SYSTEM: RPS6KA5(Kin.Dom.1) (Homo sapiens)
- Construct: RPS6KA5(Kin.Dom.1); purchased DiscoverX (KINOMEscan)
- Sequence (O75582 1-387 limits assumed): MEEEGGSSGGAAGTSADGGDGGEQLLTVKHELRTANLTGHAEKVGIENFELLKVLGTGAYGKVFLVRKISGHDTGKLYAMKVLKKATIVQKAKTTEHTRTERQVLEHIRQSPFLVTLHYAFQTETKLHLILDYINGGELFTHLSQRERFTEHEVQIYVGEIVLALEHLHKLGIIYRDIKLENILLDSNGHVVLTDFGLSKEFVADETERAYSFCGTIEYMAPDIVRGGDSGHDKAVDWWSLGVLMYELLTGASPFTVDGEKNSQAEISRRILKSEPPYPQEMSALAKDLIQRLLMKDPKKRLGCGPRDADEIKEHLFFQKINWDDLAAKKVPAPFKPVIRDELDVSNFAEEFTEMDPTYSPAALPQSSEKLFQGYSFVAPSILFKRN
- ASSAY_PROTOCOL: KINOMEscan competitive binding
- CONDITION_CONTEXT: n=1, read-out: Percent inhibition, RPS6KA5(Kin.Dom.1)
ASSAY_ENDPOINT: inhibition at 10 µM (%)
Entry rule: numbers only, all in %.

Answered examples (5):
• Nc1ncc2c(-c3ccncc3)c[nH]c2n1 [Compound 11] = 0
• Fc1cccc(COc2ccc(Nc3ncnc4c3CN(CCN3CCOCC3)CC4)cc2Cl)c1 [Compound 6] = 0
• Cc1ccc(O)cc1Nc1ccnc(Nc2cccc(C(N)=O)c2)n1 [Compound 3] = 0
• COc1cc(Nc2nccc(-c3sc(N)nc3-c3cccc(NC(=O)c4c(F)cccc4F)c3)n2)cc(OC)c1OC [Compound 7] = 97.4
• Cc1ccc(O)cc1N(C)c1ccnc(Nc2cccc(S(N)(=O)=O)c2)n1 [Compound 4] = 0

[Q] Entry under review: C[C@@H](Oc1cc(-c2cnc3ccccn23)sc1C(N)=O)c1ccccc1Cl [Compound 8] . Reported inhibition at 10 µM?
[A] 0

[Q] Please give the measured inhibition at 10 µM for this molecule: c1ccc(COc2cccc(-c3ccnc4[nH]ccc34)c2)cc1 [Compound 9]
[A] 0

[Q] Given COc1ccc(Nc2nccc(-c3cnn4ncccc34)n2)cc1 [Compound 2] , state its recorded inhibition at 10 µM.
[A] 0

[Q] Item CN1CCN(c2ccc(Nc3nccc(-c4cnn5ncccc45)n3)cc2C#N)CC1 [Compound 1] has what recorded inhibition at 10 µM?
[A] 65.7

[Q] What measured inhibition at 10 µM goes with Clc1ccc(Nc2ncc(-c3ccccc3)s2)cc1 [Compound 10] ?
[A] 0

----------
- TARGET_OR_TEST_SYSTEM: panel of 203 kinases (Homo sapiens)
- Construct: purchased DiscoverX (KINOMEscan)
- ASSAY_PROTOCOL: KINOMEscan competitive binding, whole panel
- CONDITION_CONTEXT: 10 µM, n=1; kinase EPHA5; read-out: Percent inhibition EPHA5
ASSAY_ENDPOINT: inhibition at 10 µM (%)
Give your result in % as a bare value.

• Cc1ccc(O)cc1Nc1ccnc(Nc2cccc(C(N)=O)c2)n1 [Compound 3] = 100
• CN1CCN(c2ccc(Nc3nccc(-c4cnn5ncccc45)n3)cc2C#N)CC1 [Compound 1] = 80.2
• Nc1ncc2c(-c3ccncc3)c[nH]c2n1 [Compound 11] = 0
• C[C@@H](Oc1cc(-c2cnc3ccccn23)sc1C(N)=O)c1ccccc1Cl [Compound 8] = 0

Query molecule follows.
[Q] Given Fc1cccc(COc2ccc(Nc3ncnc4c3CN(CCN3CCOCC3)CC4)cc2Cl)c1 [Compound 6] , state its recorded inhibition at 10 µM.
[A] 0
